Target: human DGKζ (Homo sapiens)
Construct: TVMV protease cleavage site (C); Hexa-His (C); made in house; host or cells: Sf9 insect cells (baculovirus, Bac-to-Bac)
Sequence (Q13574 with tags, fused parts or gaps isoform Q13574-4): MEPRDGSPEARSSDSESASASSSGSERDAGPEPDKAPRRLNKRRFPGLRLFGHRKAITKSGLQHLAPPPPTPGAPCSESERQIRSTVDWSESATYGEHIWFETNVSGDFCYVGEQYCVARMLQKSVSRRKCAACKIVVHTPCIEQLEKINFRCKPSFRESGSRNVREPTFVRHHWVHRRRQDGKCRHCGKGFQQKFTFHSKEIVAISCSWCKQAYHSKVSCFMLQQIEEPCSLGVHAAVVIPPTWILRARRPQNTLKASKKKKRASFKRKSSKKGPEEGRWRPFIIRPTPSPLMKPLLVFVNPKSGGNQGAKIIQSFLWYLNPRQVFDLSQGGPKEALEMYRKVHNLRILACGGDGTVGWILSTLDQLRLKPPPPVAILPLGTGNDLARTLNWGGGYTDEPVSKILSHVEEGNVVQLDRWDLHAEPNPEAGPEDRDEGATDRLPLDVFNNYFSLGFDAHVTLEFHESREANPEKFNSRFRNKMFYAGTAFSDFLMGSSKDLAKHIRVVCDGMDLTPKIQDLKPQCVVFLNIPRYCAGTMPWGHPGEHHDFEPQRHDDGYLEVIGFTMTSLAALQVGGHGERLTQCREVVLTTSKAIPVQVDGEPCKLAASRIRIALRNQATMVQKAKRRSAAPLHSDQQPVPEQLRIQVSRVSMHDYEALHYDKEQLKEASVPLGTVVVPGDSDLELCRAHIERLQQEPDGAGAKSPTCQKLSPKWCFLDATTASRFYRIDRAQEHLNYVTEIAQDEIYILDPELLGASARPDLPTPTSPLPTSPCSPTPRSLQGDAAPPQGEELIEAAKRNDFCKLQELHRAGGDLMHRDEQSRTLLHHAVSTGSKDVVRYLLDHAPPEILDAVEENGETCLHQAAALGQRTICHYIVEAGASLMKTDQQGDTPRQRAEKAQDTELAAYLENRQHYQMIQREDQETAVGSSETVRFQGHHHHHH
Assay: DGKζ LIPGLO assay (extruded liposome substrate), in vitro DGK inhibition
Assay type: biochemical
Settings: liposome (LIPGLO) assay; read-out: DGKz LIPGLO IC50
pIC50: −log10 of the molar value.
Label scheme for pIC50: lower than 6 is Not met, 6 and above is Met.

molecule: COC(=O)C1CN(c2c(F)c(=O)n(C)c3ccc(C#N)nc23)CCN1C(c1ccc(F)cc1)c1ccc(F)cc1 (single isomer, unassigned) [Example 75]
class: Met

molecule: C[C@@H]1CN(c2c(Br)c(=O)n(C)c3ccc(C#N)nc23)[C@@H](C)CN1C(c1ccc(F)cc1)c1ccc(F)cc1 [Example 19]
class: Not met

molecule: C[C@@H]1CN(c2cc(=O)n(C)c3ccc(C#N)nc23)[C@@H](C)CN1Cc1cc(-c2ccccc2)no1 [Example 1425]
class: Not met

molecule: CCc1cc(F)ccc1C(c1ccc(F)cc1)N1C[C@H](C)N(c2cc(=O)n(C)c3ccc(OC)nc23)C[C@H]1C (single isomer, unassigned) [Example 233]
class: Not met

molecule: C[C@@H]1CN(c2cc(=O)n(C)c3ccc(C#N)nc23)[C@@H](C)CN1C(c1ccc(F)cc1)c1cccc(N2CCOCC2)c1 (single isomer, unassigned) [Example 672]
class: Not met

molecule: CC(c1ccc(P(C)(C)=O)cc1)N1C[C@H](C)N(c2c(C#N)c(=O)n(C)c3ccc(C#N)nc23)C[C@H]1C (single isomer, unassigned) [Example 1295]
class: Not met

molecule: C[C@@H]1CN(c2cc(=O)n(C)c3ccc(C#N)nc23)[C@@H](C)CN1C(c1ccc(F)cc1)C1CCS(=O)(=O)CC1 (single isomer, unassigned) [Example 1300]
class: Not met

molecule: CC(c1ccc(C(F)(F)F)cc1)N1C[C@@H](C)N(c2cc(=O)n(C)c3ccc(C#N)nc23)C[C@@H]1C (single isomer, unassigned) [Example 345]
class: Not met

molecule: CCOC[C@@H]1CN(c2cc(=O)n(C)c3ccc(C#N)nc23)[C@@H](C)CN1C(C)c1ccc(OC(F)(F)F)cc1 (single isomer, unassigned) [Example 1397]
class: Met

molecule: CC[C@@H]1CN(c2cc(=O)n(C)c3ccc(C#N)nc23)[C@@H](C)CN1C(C)c1c(F)cc(F)cc1F (single isomer, unassigned) [Example 1090]
class: Not met

molecule: C[C@@H]1CN(c2cc(=O)n(C)c3ccc(C#N)nc23)[C@@H](C)CN1C(c1ccc(Cl)cc1)c1ccc2c(c1)OC(F)(F)O2 (single isomer, unassigned) [Example 656]
class: Not met
